- STUDY_SYSTEM: T1, antithrombin III (plasma purified human AT-III), used as the AT-III/unfractionated heparin complex (human, UniProt P01008 33-464)
- T1 construct: also called AT-III/UFH
- ASSAY_METHOD_TEXT: K0.5: AT-III/UFH titrated against FIXa, 10 s, residual cleavage of Mesyl-D-CHG-Gly-Arg-AMC
Provide the recorded pIC50 for the entries that follow.
Please keep in mind that pIC50 is minus log10 of the molar concentration; only the number is needed.

Lookup: Fill in: pIC50 of FIXa-D203N/F205T/E410N (enzyme, also called D39N/F41T/E240N (chymotrypsin numbering)) chain 1: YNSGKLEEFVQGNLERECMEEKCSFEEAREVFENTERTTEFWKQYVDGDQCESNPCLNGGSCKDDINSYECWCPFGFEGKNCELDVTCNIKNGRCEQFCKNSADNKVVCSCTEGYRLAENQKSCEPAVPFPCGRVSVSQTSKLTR chain 2: VVGGEDAKPGQFPWQVVLNGKVNATCGGSIVNEKWIVTAAHCVETGVKITVVAGEHNIEETEHTEQKRNVIRIIPHHNYNAAINKYNHDIALLELDEPLVLNSYVTPICIADKEYTNIFLKFGSGYVSGWGRVFHKGRSALVLQYLRVPLVDRATCLRSTKFTIYNNMFCAGFHEGGRDSCQGDSGGPHVTEVEGTSFLTGIISWGEECAMKGKYGIYTKVSRYVNWIKNKTKLT is ___
Found: 6.42

Lookup: Quick one: FIXa-D203N/F205T/R338E/R403E (enzyme, also called D39N/F41T/R170E/R233E (chymotrypsin numbering)) chain 1: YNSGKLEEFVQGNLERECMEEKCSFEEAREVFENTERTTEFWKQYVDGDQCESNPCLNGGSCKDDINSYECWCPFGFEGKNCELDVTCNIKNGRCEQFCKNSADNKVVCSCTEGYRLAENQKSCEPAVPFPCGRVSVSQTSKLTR chain 2: VVGGEDAKPGQFPWQVVLNGKVNATCGGSIVNEKWIVTAAHCVETGVKITVVAGEHNIEETEHTEQKRNVIRIIPHHNYNAAINKYNHDIALLELDEPLVLNSYVTPICIADKEYTNIFLKFGSGYVSGWGRVFHKGRSALVLQYLRVPLVDRATCLESTKFTIYNNMFCAGFHEGGRDSCQGDSGGPHVTEVEGTSFLTGIISWGEECAMKGKYGIYTKVSEYVNWIKEKTKLT
Found: 5.82
